Values were extracted from ChEMBL document CHEMBL1201862.

System: Hs-578T
Experiment: NCI tumour cell line growth inhibition, 48 h
Calls of active or inactive are those of the source. Cut-off read from the data, not from the text of the source: active = GI50 up to about 1.1 µM and inactive = higher.
Recorded measurements of GI50, one per entry

// below: answered molecules
- MOLECULE: "ClC1(Cl)C2CCOC21n1cnc2ccccc21 (centres undefined)"
  PROPERTY_LABEL: "GI50"
  RESULT: "> 100 µM (inactive)"
- MOLECULE: "COc1ccc(-n2cnc3c(NC(CCSC)C(=O)O)ncnc32)cc1 (centres undefined)"
  PROPERTY_LABEL: "GI50"
  RESULT: "> 100 µM (inactive)"
- MOLECULE: "CC(=O)Oc1ccc2c(c1)CC[C@@H]1C2CC[C@]2(C)C(=O)NC(=O)CC12 (some centres undefined)"
  PROPERTY_LABEL: "GI50"
  RESULT: "> 100 µM (inactive)"

Field: next molecule
Exercise: Need GI50, item COC(=O)C1CC(C=[N+](C)C)=C(SC)N1 (centres undefined)
Solution: > 100 µM (inactive)

* * *

Recorded measurements of GI50, one per entry
Test system: SNB-19
Experiment: NCI tumour cell line growth inhibition, 48 h
Activity calls are given as the source filed them. No stated cut-off is given here; in the data, active = GI50 up to about 1.1 µM and inactive = higher.

- COMPOUND: "S=c1sc2c(s1)SCCCCSCCCCSc1sc(=S)sc1SCCCCSCCCCS2"
  PROPERTY_LABEL: "GI50"
  RESULT: "> 100 µM (inactive)"
- COMPOUND: "N=c1sc(N2CCOCC2)nn1CC(=O)c1ccccc1"
  PROPERTY_LABEL: "GI50"
  RESULT: "> 100 µM (inactive)"
- COMPOUND: "C=C1C(=O)OC2CC1C(O)C/C(C)=C/CC/C(C)=C/C(O)CC2C (stereo not drawn)"
  PROPERTY_LABEL: "GI50"
  RESULT: "5.47 µM (inactive)"
- COMPOUND: "Cc1ccc(S(=O)(=O)c2scc(-c3ccccc3)c2C)cc1"
  PROPERTY_LABEL: "GI50"
  RESULT: "> 100 µM (inactive)"
- COMPOUND: "Cn1c(=O)c2c(nc3n(Cc4ccccc4)c(=O)c(NCCBr)cn23)n(C)c1=O"
  PROPERTY_LABEL: "GI50"
  RESULT: "30.4 µM (inactive)"

Exercise: GI50 of Cc1ccc(S(=O)(=O)NNC(C[N+](=O)[O-])c2ccccc2)cc1 (stereo not drawn) on SNB-19?
Solution: 7.14 µM (inactive)

Exercise: Next compound up: CC(C)(NO)/C(=N\O)c1ccccc1
Solution: > 10 µM (inactive)

Exercise: Next compound up: Cc1cc(C(C)(C)C)cc(CNC2CCCCC2)c1O
Solution: 16.6 µM (inactive)

Exercise: Next compound up: C/C(=N\O)C(CN(C)C)C(c1ccccc1)c1c(O)c2ccccc2oc1=O (stereo not drawn)
Solution: > 100 µM (inactive)

Exercise: Next compound up: COc1cc(Oc2nc3cc(F)c(F)cc3nc2-c2ccccc2)cc(OC)c1OC
Solution: 34.2 µM (inactive)

Exercise: Next compound up: CCO/C([O-])=C(\C(=O)c1ccccc1)[n+]1c(C)sc2ccccc21
Solution: > 100 µM (inactive)

Exercise: Next compound up: O=P(Oc1ccc(Cl)cc1)(Oc1ccc(Cl)cc1)N1CC1
Solution: > 10 µM (inactive)

Exercise: Next compound up: CCC1(C)C=Cc2c(cc(O)c3c(=O)c4ccccc4n(C)c23)O1 (stereo not drawn)
Solution: > 10 µM (inactive)
